# study-target: acetylcholine muscarinic M1 receptor (Homo sapiens, UniProt P11229)
# Construct: expressed in transfected cells; host or cells: CHOnfat cells (CHO cells with an NFAT reporter) expressing hM1, kept under Geneticin selection
# Sequence (P11229 whole entry): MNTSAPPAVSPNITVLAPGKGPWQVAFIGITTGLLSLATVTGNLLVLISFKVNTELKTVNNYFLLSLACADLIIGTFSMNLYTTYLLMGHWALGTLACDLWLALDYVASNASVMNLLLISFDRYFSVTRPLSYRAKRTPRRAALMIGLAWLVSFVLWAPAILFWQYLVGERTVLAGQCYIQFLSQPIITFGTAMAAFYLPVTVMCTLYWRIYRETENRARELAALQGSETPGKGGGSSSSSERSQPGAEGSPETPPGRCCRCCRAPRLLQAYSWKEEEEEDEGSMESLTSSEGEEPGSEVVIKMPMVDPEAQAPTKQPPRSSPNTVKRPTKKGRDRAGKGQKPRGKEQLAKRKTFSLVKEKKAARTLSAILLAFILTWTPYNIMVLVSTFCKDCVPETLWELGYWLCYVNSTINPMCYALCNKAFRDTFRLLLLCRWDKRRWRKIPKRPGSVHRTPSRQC
# assay-overview: muscarinic FLIPR assay: intracellular calcium in CHOnfat/hM1 cells, potentiation of EC20 acetylcholine
# Type: cell-based
# experimental-setup: IP Value (nM), Table 3; inflection point calculated from the FLIPR values; EC20 acetylcholine (3 nM final)
readout-kind: EC50 (nM)

input-smiles | study-target | value
CN(C)C(=O)Oc1cccc(N2Cc3c(cc(CN4CCC(F)(F)CC4)c4cccnc34)C2=O)c1 | acetylcholine muscarinic M1 receptor (Homo sapiens, UniProt P11229) | 2260
